PROTOCOL_TEXT: logP determination by HPLC on a reverse-phase column (EEC Directive 79/831 Annex V.A8)
Assay type: physicochemical
MEASUREMENT_SETUP: pH 2.3, reverse-phase column (C 18), 43° C.
# if measured logP < 4: label 1  # else: label 0

Some entries whose results are on file:
>>> assigned_class("C=C(CC(C)(C)C)c1ccccc1NC(=O)c1ccsc1I")
"label 0"
>>> assigned_class("CC(C)(C)CCc1cc(F)ccc1NC(=O)c1ccsc1I")
"label 0"
>>> assigned_class("O=C(Nc1ccncc1-c1ccc(Cl)c(Cl)c1)c1ccsc1I")
"label 1"

Request: Consider O=C(Nc1ccccc1-c1ccc(F)c(Cl)c1)c1ccsc1I . Does its logP lie strictly below 4?
Response: label 1

* * *

pest or weed control at 100 g/ha overview
Tested on: Sphaerotheca fuliginea
PROTOCOL_TEXT: Sphaerotheca test (cucumber)/protective
Type: in vivo
MEASUREMENT_SETUP: Podosphaera fuliginea, 168 h, protective, application rate 100 g/ha, evaluation 7 days after inoculation, read-out: Efficacy in %
Your answer is read as %, so omit the unit and give the number.

Below are worked cases with known answers.
>>> quantitative_readout("O=C(Nc1ccccc1-c1ccc(Br)cc1)c1ccsc1I [drawing 169]")
100
>>> quantitative_readout("O=C(Nc1ccccc1-c1ccc(Br)c(F)c1)c1ccsc1I [drawing 158]")
100

Request: Which value of pest or weed control at 100 g/ha has been reported for C[Si](C)(C)CCc1sccc1NC(=O)c1ccsc1I [drawing 184] in the records?
Response: 100

* * *

PROTOCOL_TEXT: logP determination by HPLC on a reverse-phase column (EEC Directive 79/831 Annex V.A8)
Type: physicochemical
MEASUREMENT_SETUP: pH 2.3, reverse-phase column (C 18), 43° C.
logP overview
Number only, please.

>>> quantitative_readout("O=C(Nc1ccccc1-c1ccc(C(F)(F)F)cc1)c1ccsc1I")
3.89

Request: Which value of logP has been reported for O=C(Nc1ccccc1-c1ccc(Br)c(F)c1)c1ccsc1I in the records?
Response: 3.89

Request: Which value of logP has been reported for O=C(Nc1ccccc1-c1ccc(Cl)c(Cl)c1)c1ccsc1I in the records?
Response: 4.11

Request: Which value of logP has been reported for O=C(Nc1ccccc1-c1ccc(Br)cc1)c1ccoc1I in the records?
Response: 3.72

* * *

logP overview
PROTOCOL_TEXT: logP determination by HPLC on a reverse-phase column (EEC Directive 79/831 Annex V.A8)
Format: physicochemical
MEASUREMENT_SETUP: pH 2.3, reverse-phase column (C 18), 43° C.
Number only, please.

Below are worked cases with known answers.
>>> quantitative_readout("CC(C[Si](C)(C)C)c1ccccc1NC(=O)c1ccoc1I (stereo not shown) [Example 16]")
4.45
>>> quantitative_readout("O=C(Nc1ccccc1-c1ccc(Cl)cc1)c1ccoc1I [Example 11]")
3.62
>>> quantitative_readout("O=C(Nc1ccccc1-c1ccc(Cl)c(Cl)c1)c1ccoc1I [Example 10]")
3.89
>>> quantitative_readout("CC(C)CC(C)c1cc(F)ccc1NC(=O)c1ccsc1I (stereo not shown) [Example 41]")
4.17

Request: Which value of logP has been reported for CC(C)(C)CCc1sccc1NC(=O)c1ccsc1I [Example 42] in the records?
Response: 4.44

Request: Which value of logP has been reported for O=C(Nc1ccccc1-c1ccc(Br)c(F)c1)c1ccoc1I [Example 4] in the records?
Response: 3.58

Request: Which value of logP has been reported for O=C(Nc1ccccc1-c1ccc(Br)cc1Cl)c1ccsc1I [Example 21] in the records?
Response: 4.28

Request: Which value of logP has been reported for O=C(Nc1ccccc1-c1ccc(Cl)c(Cl)c1)c1ccsc1Br [Example 30] in the records?
Response: 4.25

Request: Which value of logP has been reported for CC(CC(C)(C)C)c1ccccc1NC(=O)c1ccoc1I (stereo not shown) [Example 7] in the records?
Response: 4.16

Request: Which value of logP has been reported for O=C(Nc1ccccc1-c1ccc(Cl)cc1)c1ccsc1I [Example 8] in the records?
Response: 3.93

Request: Which value of logP has been reported for O=C(Nc1ccccc1-c1ccc(Cl)c(F)c1)c1ccsc1Br [Example 31] in the records?
Response: 3.91

Request: Which value of logP has been reported for CC(C[Si](C)(C)C)c1ccccc1NC(=O)c1ccsc1I (stereo not shown) [Example 17] in the records?
Response: 4.69

Request: Which value of logP has been reported for CC(CC(C)(C)C)c1ccccc1NC(=O)c1ccsc1I (stereo not shown) [Example 6] in the records?
Response: 4.42
